- Test system: A549
- measurement.protocol: NCI tumour cell line growth inhibition, 48 h
The source made the active and inactive calls. No stated cut-off is given here; in the data, active = GI50 up to about 1.1 µM and inactive = higher.
test.readout: GI50

| compound | result |
| --- | --- |
| O=C(Nc1ccc(Cl)cc1Cl)C1C(=O)N(c2ccc(Cl)cc2Cl)C(=O)/C1=N\Nc1ccc([N+](=O)[O-])cc1[N+](=O)[O-] (configuration not stated) | > 100 µM (inactive) |
| Cc1ccc(NC(=O)CC2Sc3ccccc3NC2=O)cc1C (configuration not stated) | 41.2 µM (inactive) |
| O=C1c2ccccc2C2(Br)C(=O)c3ccccc3C12 (configuration not stated) | > 100 µM (inactive) |
| COc1cc(OC)c2ssc3c(OC)cc(OC)c4ssc1c2-c43 | > 100 µM (inactive) |
| O=c1[nH]c(=O)n(C2CC(O)C(CO)O2)cc1Oc1ccccc1 (configuration not stated) | > 100 µM (inactive) |
| CCC1([N+](=O)[O-])CC2C=CC1C2 (configuration not stated) | > 100 µM (inactive) |
| COc1ccc(/C=C2\N=C(c3ccccc3)OC2=O)cc1OC(C)=O | > 100 µM (inactive) |
| O=C(O)Cc1nc[nH]c1C(=O)O | > 100 µM (inactive) |
| COc1ccc(C2c3cc4c(cc3OC3(OC)COC(=O)C23)OCO4)c(OC)c1 (configuration not stated) | 10.1 µM (inactive) |
| NC(=O)N=C(NCc1ccccc1)NCc1ccccc1 | > 100 µM (inactive) |
| CCCCNc1nc(O)c2[nH]cnc2n1 | > 100 µM (inactive) |
| O=C(CCN1CCN(c2cccc(Cl)c2)CC1)N1CCc2c([nH]c3ccccc23)C1c1cccnc1 (configuration not stated) | 6.28 µM (inactive) |
